Below, each entry is listed alongside its reported IC50.
subject of test: UniProtKB P81908
Sequence (P81908 whole entry): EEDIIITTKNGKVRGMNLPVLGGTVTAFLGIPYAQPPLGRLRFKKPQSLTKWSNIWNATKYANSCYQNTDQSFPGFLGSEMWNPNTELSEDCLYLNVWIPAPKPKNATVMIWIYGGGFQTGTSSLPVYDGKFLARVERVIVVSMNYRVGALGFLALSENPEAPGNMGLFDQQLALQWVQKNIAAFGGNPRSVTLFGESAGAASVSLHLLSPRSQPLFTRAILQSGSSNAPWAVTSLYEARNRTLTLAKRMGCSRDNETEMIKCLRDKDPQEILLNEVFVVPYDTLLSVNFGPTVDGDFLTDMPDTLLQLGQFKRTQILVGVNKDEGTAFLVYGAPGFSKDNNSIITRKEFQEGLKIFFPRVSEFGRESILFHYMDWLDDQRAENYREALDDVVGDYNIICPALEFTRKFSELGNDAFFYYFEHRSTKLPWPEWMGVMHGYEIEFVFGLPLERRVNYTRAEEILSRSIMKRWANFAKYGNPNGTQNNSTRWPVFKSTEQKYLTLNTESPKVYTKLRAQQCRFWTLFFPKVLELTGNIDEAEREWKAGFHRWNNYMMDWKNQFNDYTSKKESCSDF
experimental details: Inhibition of equine serum BChE using BTC as substrate preincubated for 15 mins followed by substrate addition measured at 1 min intervals by Ellman method

stdin: # lookup: IC50 of O=c1cc(-c2ccc(OCc3ccccc3)cc2)oc2cc(OCCCCCCCCN3CCCC3)ccc12
stdout: > 25 µM

stdin: Could you tell me which IC50 is on file for O=c1cc(-c2cccc(OCc3ccccc3)c2)oc2cc(OCCCCCCCCN3CCCC3)ccc12 ?
stdout: > 25 µM

stdin: Fill blank: measured IC50 of the compound O=c1cc(-c2ccc(-c3ccccc3)cc2)oc2cc(OCCCCCCCCN3CCCC3)ccc12 is ____.
stdout: > 25 µM
